Where these numbers come from: patent US20230173082A1

# Tested on: K. Pneumonia 700603
# protocol.description: MIC testing (MIC/MBC), broth dilution
# Assay type: cell-based
# settings: runs A, B, C; 24 hours at 37° C.; delivery agents with Moenomycin A at 1:2 ratio
test.readout: MIC (µg/mL)
Provide only the numeric value, understood in µg/mL.

compound	assay.system	units.of.measure	measured.result
CCCCCCCCCCCCCCCCCC(=O)OC(COCC(COC(=O)NCCCN(C)CCCN)OC(=O)NCCCN(C)CCCN)COCC(COC(=O)NCCCN(C)CCCN)OC(=O)NCCCN(C)CCCN (stereo not shown) [Compound 5]	K. Pneumonia 700603	µg/mL	64

Task item: Please supply the value of reported MIC for the item C=C(C/C=C(\C)CCC=C(C)C)CCC(C)(C)/C=C/CC/C(C)=C/CO[C@@H](COP(=O)(O)O[C@H]1O[C@H](C(N)=O)[C@@](C)(O)[C@H](OC(N)=O)[C@H]1O[C@@H]1O[C@H](CO[C@@H]2O[C@H](CO)[C@@H](O)[C@H](O)[C@H]2O)[C@@H](O[C@@H]2O[C@H](C)[C@@H](O[C@@H]3O[C@H](C(=O)NC4=C(O)CCC4=O)[C@H](O)[C@H](O)[C@H]3O)[C@H](O)[C@H]2NC(C)=O)[C@H](O)[C@H]1NC(C)=O)C(=O)O [Moenomycin A, reference compound]
Reply: 64
